Would you mind telling me the reported apparent KD of K4 kissing-loop reporter of each entry?
# System: K4 kissing-loop RNA reporter;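 further: bound reporter read as fluorescence of individual clusters on recovered sequencing chips by microscopy, with normalized cluster intensities fitted with a binding model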
# method notes: apparent KD of K4 kissing-loop reporter; higher = weaker reporter binding
# conditions: Eterna round: R107; input ligand: theophylline 20 uM

residue sequence	apparent KD of K4 kissing-loop reporter
CGCAGUGAUGUUGCUUUUAUUCUUGGUUAACGAGGACCGGUACGGCCGCCACUCGAUUUCUAUCUAUUCCAGUGUUUUUUUGAGU [JR_ExcTryptoA_Sub004]	464 nM
UGACAUUGCUCAGAUACCAGACCUGAGGAUCACCCGGGUGCCAAAACGUACUAAAUAAAGGUCCCUUGGCAGCUGAGCAAUGUCU [TheoBX 13]	49.5 nM
AUGCUGUCGGCGUUAAAGUAGUAAUGUGAUACCAGAAAUGCUGUGUUCCCUUGGCAGCACAUUCUUACAGACAGUGAUGUUGUCU [theeternabot_exclusion_KL_Theo_A_8]	390 nM
GGUUCCUCAGUGAUGUUGAGGUGACCUCGGCAGGAUAUAGGCAUUACUAGAAGGGCCAAAUGAACCCUGUCCAGCGGCACAGGGA [Arleorbile]	298 nM
AUCUAUGAGCGAGGAUAUGCAUAACGCGAGUGAUGUUCGCGAUGUGGGCGUAAUUGAUAAAAUGAAGCAGAAGGCGCACUCAUGA [Exclusion - FMW B / B]	155 nM

For every listed record, write down its apparent KD of K4 kissing-loop reporter.
1. GUUACGCAUGGAAGGAGCGCACUCCGAUUGGGCGACGCAGUGAUGUUGUGGUUCGUUCGAAUGCAGGUAGGUCGCCAUGUGUAAC [Ex Arginine B K4 21]
2. GUCCGGAAGGCGGCUUCACGACCGUGGUGGGAGGAUAUGUCUAAGGACAGAAGGCCCAGUGAUGUUGGGCUUUAGGAGAGCCAUA [Ragele]

result:
["141 nM", "116 nM"]

For every listed record, write down its apparent KD of K4 kissing-loop reporter.
1. AAUUAAGUGACGGCCGCCACUAGGGUGAUUUUUUUGUUUGAGUGAUGUUUUGAUGUUUGAUUUUGUAGGACCGGGUUAGGUGAUG [juhmullin]
2. GAUUUAGAGGCGGCCGCCACUAGUGAUGUUAGUGAUGUUUGAUACUGUAUAUAUCGGCGUGUAGAUAGGACCGGGCCAGAUGGAG [tbqqmullin]
3. ACGUGCACUAGUGAUGUUGGAAAAUAGGAAGGAGCGGGCGAAAGCCCAGGUAGGUCGCCUAAUAGCACGAGCCACGAAAGUGGCA
4. GGAUAGGAUAGAGGAUAUGGCUUACGCAGAAAUAACUUAUUGUGUAAAUCCAUAGGGAGUGAUGUUCCAGAAGGCUGUCCUAUCG [MatMod 17 - Jieux - Exclusion - FMN B]
5. AAGCAGUCGCUCGAAGCCAUCGAAGAUGGGCGAGGACCGGUACGGCCGCCACUCGGAGUGAUGUUCCGAGGACUGCAAAAUAAAA [MatMod 5 - Jieux - Exclusion - Tryptophan A]

result:
1: 404 nM; 2: 229 nM; 3: 774 nM; 4: 244 nM; 5: 263 nM
